Value source: paper PMC8119466

# TARGET: recombinant PRL-1 (Homo sapiens, UniProt Q93096)
# Construct: 6xHis (N, cleaved yes); made in house; host or cells: E. coli One Shot BL21 Star
# Sequence (Q93096 whole entry): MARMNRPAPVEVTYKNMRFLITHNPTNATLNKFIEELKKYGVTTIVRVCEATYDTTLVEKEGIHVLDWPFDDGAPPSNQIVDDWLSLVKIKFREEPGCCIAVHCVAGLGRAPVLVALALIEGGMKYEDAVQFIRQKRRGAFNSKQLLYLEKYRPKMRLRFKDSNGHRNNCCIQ
# TEST DESCRIPTION: In vitro phosphatase assay (DiFMUP hydrolysis), PRL-1; also: test concentration or dose not given here
# Assay type: biochemical
# PROTOCOL CONDITIONS: FDA-approved drug screen; compared to DMSO
Structures can show the parent of a compound that is named as a salt.
READOUT LABEL: % Phosphatase Activity (compared to DMSO) PRL-1

COc1ccc2cccc(CCNC(C)=O)c2c1 = 92%
O=C(Nc1ccccc1)OCC(CN1CCCCC1)OC(=O)Nc1ccccc1 (stereo not drawn) [Diperodon HCl] = 99%
Cn1cc[nH]c1=S = 104%
Cc1ccnc2c1NC(=O)c1cccnc1N2C1CC1 = 85%
CNC1CCCN(c2c(F)cc3c(=O)c(C(=O)O)cn(C4CC4)c3c2OC)C1 (stereo not drawn) = 282%
CCC[S+]([O-])c1ccc2[nH]c(NC(=O)OC)nc2c1 (stereo not drawn) [Albendazole Oxide] = 93%

Let us move to another entry and its % Phosphatase Activity (compared to DMSO) PRL-1.
For reference, reported % Phosphatase Activity (compared to DMSO) PRL-1 for Cc1cn[nH]c1 [Fomepizole] stands at 102%

* * *

# TARGET: recombinant PRL-3 (Homo sapiens)
# Construct: 6xHis (N, cleaved yes); made in house; host or cells: E. coli One Shot BL21 Star
# Sequence (O75365 whole entry): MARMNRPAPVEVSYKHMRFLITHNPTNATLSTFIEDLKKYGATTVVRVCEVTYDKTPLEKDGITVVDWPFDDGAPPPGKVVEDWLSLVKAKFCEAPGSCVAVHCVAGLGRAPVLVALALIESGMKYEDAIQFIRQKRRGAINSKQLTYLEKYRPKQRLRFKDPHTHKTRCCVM
# TEST DESCRIPTION: In vitro phosphatase assay (DiFMUP hydrolysis), PRL-3; also: test concentration or dose not given here
# Type: biochemical
# PROTOCOL CONDITIONS: FDA-approved drug screen; compared to DMSO
Where a name gives a salt, the structure may show the parent alone.
READOUT LABEL: % Phosphatase Activity (compared to DMSO) PRL-3 (%)
Supply the numeric figure in %, leaving out any unit text.

Solved cases below.
COC1=C(OC)C(=O)C(CCCCCCCCCCO)=C(C)C1=O [Idebenone] = 101
O[C@H]1[C@H](O)[C@@H](O)[C@H](O)[C@@H](O)[C@H]1O [i-Inositol] = 87
CCOC(=O)c1c(C)n(C)c2ccc(O)cc12 [Mecarbinate] = 77
Nc1ccc2cc3ccc(N)cc3nc2c1 [Proflavine Hemisulfate] = 100

// field: % Phosphatase Activity (compared to DMSO) PRL-3; key: Clc1ccccc1C(c1ccccc1)(c1ccccc1)n1ccnc1 [Clotrimazole] ; value = 88

// recorded % Phosphatase Activity (compared to DMSO) PRL-3 for OC[C@H]1O[C@@H](c2ccc(Cl)c(Cc3ccc(O[C@H]4CCOC4)cc3)c2)[C@H](O)[C@@H](O)[C@@H]1O [Empagliflozin (BI 10773)] : 97

Kindly note the recorded % Phosphatase Activity (compared to DMSO) PRL-3 for NC(=O)c1ncn([C@@H]2O[C@H](CO)[C@@H](O)[C@H]2O)n1 [Ribavirin] , which is 83

% Phosphatase Activity (compared to DMSO) PRL-3 reported for this compound COc1ccc(CN(CCN(C)C)c2ccccn2)cc1 [Pyrilamine Maleate] : 98

For record Nc1ccc(O)c(C(=O)O)c1 [Mesalamine] the listed % Phosphatase Activity (compared to DMSO) PRL-3 is 82

% Phosphatase Activity (compared to DMSO) PRL-3 for Cl.Cn1c(CCCC(=O)O)nc2cc(N(CCCl)CCCl)ccc21 [Bendamustine HCl] is 79
